Test system: KU-19-19 (Bladder Carcinoma);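 note: after 72 h of two-drug dosing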
PROTOCOL: Bliss excess, mean over the matrix (fraction); higher = more synergy
ENDPOINT_LABEL: Bliss excess

INSERT INTO results (molecule, experimental_target, measured_result) VALUES
  ('CCN(CCO)CCCOc1ccc2c(Nc3cc(CC(=O)Nc4cccc(F)c4)[nH]n3)ncnc2c1 [AZD2811] + C=CCn1c(=O)c2cnc(Nc3ccc(N4CCN(C)CC4)cc3)nc2n1-c1cccc(C(C)(C)O)n1 [AZD1775] (first compound max 1 µM, partner max 1 µM)', 'KU-19-19 (Bladder Carcinoma)', -0.014),
  ('COc1cccc(OCCCN)c1-c1cc(Nc2cnc(C#N)cn2)n[nH]1 [Prexasertib] + C=CCn1c(=O)c2cnc(Nc3ccc(N4CCN(C)CC4)cc3)nc2n1-c1cccc(C(C)(C)O)n1 [AZD1775] (first compound max 1 µM, partner max 1 µM)', 'KU-19-19 (Bladder Carcinoma)', 0.0222);

Below is a list of molecules. For each, state its recorded Bliss excess.
1. COc1nnc2ccc(N3CCC(c4ccc(OCCN5CCN(C)C(=O)[C@H]5C)cc4)CC3)nn12 [AZD5153] + C[C@@H]1COCCN1C2=NC(=NC(=C2)C3(CC3)[S@](=N)(=O)C)C4=C5C=CNC5=NC=C4 [AZD6738] (first compound max 1 µM, 7x7, partner max 10 µM)
2. CC1(C)CCC(CN2CCN(c3ccc(C(=O)NS(=O)(=O)c4ccc(NCC5CCOCC5)c([N+](=O)[O-])c4)c(Oc4cnc5[nH]ccc5c4)c3)CC2)=C(c2ccc(Cl)cc2)C1 [Venetoclax] + C[C@@H]1COCCN1C2=NC(=NC(=C2)C3(CC3)[S@](=N)(=O)C)C4=C5C=CNC5=NC=C4 [AZD6738] (first compound max 1 µM, 7x7, partner max 10 µM)
3. COc1nnc2ccc(N3CCC(c4ccc(OCCN5CCN(C)C(=O)[C@H]5C)cc4)CC3)nn12 [AZD5153] + CN(CC[C@H](CSC1=CC=CC=C1)NC2=C(C=C(C=C2)S(=O)(=O)NC(=O)C3=CC=C(C=C3)N4CCC(CC4)[C@H](C5=CC=CC=C5C6=CC=C(C=C6)Cl)O)S(=O)(=O)C(F)(F)F)CCO [AZD4320] (first compound max 1 µM, 7x7, partner max 1 µM)
4. NC1(C(=O)N[C@@H](CCO)c2ccc(Cl)cc2)CCN(c2ncnc3[nH]ccc23)CC1 [Capivasertib] + C[C@@H]1COCCN1C2=NC(=NC(=C2)C3(CC3)[S@](=N)(=O)C)C4=C5C=CNC5=NC=C4 [AZD6738] (first compound max 10 µM, 7x7, partner max 10 µM)
5. CN(C)CCCOc1ccc(-c2ccc3ncc4c(c3c2)n(C2CCOCC2)c(=O)n4C)cn1 [AZD0156] + O=C(c1cc(Cc2n[nH]c(=O)c3ccccc23)ccc1F)N1CCN(C(=O)C2CC2)CC1 [Olaparib] (first compound max 3 µM, partner max 3 µM)

## Output
[-0.0645, -0.0844, 0.0829, -0.0748, 0.0781]
